tested on: MS2 coat protein; assay: apparent KD of MS2 coat protein; designed switch direction (-1 OFF switch, 1 ON switch): -1; higher = weaker reporter binding; conditions: input ligand: FMN 200 uM
A collection of sequences and their measured apparent KD of MS2 coat protein
readout.name: apparent KD of MS2 coat protein (nM)

INSERT INTO measurements (sequence_string, recorded_number) VALUES
  ('UUAAAUCAUGUAGGAUAUGCGUGGCGAAGCUAUGCAGAAGGACAUGAGGAUCACCCAUGUGCUUCCGUCUGCGUACAGAUGGUA [JL ENG1 1.13] (Eterna round: R96, puzzle: Exclusion NG 1)', 315),
  ('GGCGUGUCGCGAGGAUAUUCAAACGGACAUGAGGAUCACCCAUGUGAAAGGAAUGUCGAGGUUAUGGAGAAGGCGUUCACGCCG [Qubizace] (Eterna round: R96, puzzle: Exclusion NG 2)', 549),
  ('GAUUAUGCAAGCUUUUGGGACAUGAGGAUCACCCAUGUUCGUCUUAUUGAUCUAGGUACGCUGACGUACCUAGAUCU [JL-sv1-2.32 Brourd mod] (Eterna round: R96, puzzle: Sensor v3, turn-off variant 1)', 14.8),
  ('AUAAGGUCAGGAUAUGCUUGGCUGAUUCUGGUGUCCAAAUGACAUGAGGAUCACCCAUGUAGAAGGGACAUCAG [Usgeledi] (Eterna round: R97, puzzle: Exclusion 2)', 16.1),
  ('AACAGUCUGGAGGAUAUGCUGGAUAAAUAUCUGGCAGAAGGCUGGACAUGAGGAUCACCCAUGUAAAUACUACC [Omei Ex6 A2b] (Eterna round: R97, puzzle: Exclusion 6)', 54.5),
  ('AUCGUGUGAGGAUAUCGAUUAUGGAGGUCUAGGUCCAUACGCGAGAAGGCACAUGAGGAUCACCCAUGUAAUGG [jl-ex4-4.31 ViennaUCT mod] (Eterna round: R97, puzzle: Exclusion 4)', 126),
  ('GUCGUGCGGCAGUGCUGUACGAGUACAUGAGGAUCACCCAUGUAGGAUAUGGUUCGUUUUGCGUGCUAGAAGGGCGUGCGUUUA [Excl-NG3-LRO19] (Eterna round: R96, puzzle: Exclusion NG 3)', 18.4),
  ('ACCGCAAGAGGAUAUACAUGAGGAUCACCCAUGUCGACCGCGAGAGACGUGGACCGGCGUAGAAGGCUUGCCAC [Eternabot (Original) Solution 50] (Eterna round: R97, puzzle: Exclusion 3)', 355),
  ('GCCUUAUCCGUCAGGAUAUACAGCCGCUCCUUGUUGUAGAAGGGACAUGAGGAUCACCCAUGUACGUACCAUUG [alecazam5] (Eterna round: R97, puzzle: Brourd''s mod of Exclusion 4)', 25.4);

----------
tested on: K4 kissing-loop RNA reporter; assay: apparent KD of K4 kissing-loop reporter; higher = weaker reporter binding; conditions: Eterna round: R107; input ligand: FMN 200 uM;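 note: bound reporter read as fluorescence of individual clusters on recovered sequencing chips by microscopy, with normalized cluster intensities fitted with a binding model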
A collection of sequences and their measured apparent KD of K4 kissing-loop reporter
readout.name: apparent KD of K4 kissing-loop reporter (nM)

INSERT INTO results (sequence_string, recorded_number) VALUES
  ('AUCGUUGCCAUUAGGACAUACGGUCCUGAACGAGGACCGGUACGGCCGCCACUCGAGCACACGAGUGAUGUUCGUGGGCAACGAU [Tryp A SS t1]', 131),
  ('AGGAUCACGUCAGUGAUGUUGACGAGAGAUACCAGAGACGAAAGUCUCCCUUGGCAGCUCAUCGUGAUCCGUGACAAAGGUCACA [Omei KL hio A SS C v4]', 338),
  ('CAUACGCAUGGAGGAUAUGAGAUUACUCAUAUUACCCUGUAACAGGUAUCUCAGUGAUGUUGAGACUCAGAAGGCCAUGUGUAUG [Ex FMN B 22]', 713);

----------
test system: MS2 coat protein; assay: apparent KD of MS2 coat protein; designed switch direction (-1 OFF switch, 1 ON switch): -1; higher = weaker reporter binding; conditions: Eterna round: R95; input ligand: FMN 200 uM
Think of 0.1 µM as a floor: if apparent KD of MS2 coat protein stands on it or above, it is true; beneath it, false.

INSERT INTO measurements (sequence_string, test_system, assigned_label) VALUES
  ('UAUUAGCAAGCAUGAUCCCACAUGAGGAUCACCCAUGUGCUCGUCUUAUAAGGUACUGUGACGAAAGUCACGGUACC [Sensor 3, v1 - 97] (puzzle: Sensor v3, turn-off variant 1)', 'MS2 coat protein', 'true'),
  ('CAGGUGUUAGGAUAUCGGAGAUCGAGACCGACGGGAUGAGCCGAGAAGGAACAUGAGGAUCACCCAUGUAGGUG [JR_Exclu4_Sub034] (puzzle: Exclusion 4)', 'MS2 coat protein', 'true'),
  ('ACAAGCUUUUUGUUCGUCUUAUACACUCCUAAUAAGACAACAUGAGGAUCACCCAUGUAACAAACAAGAACUCAUGU [Sesor Array 6 - Jieux - Sensor v3, turn-off variant 2] (puzzle: Sensor v3, turn-off variant 2)', 'MS2 coat protein', 'false'),
  ('GUGGUCCGAGGAUAUAUUAUGUGAUACAUGAGGAUCACCCAUGUUAUAUAAUGGAUGUUAGUAGAAGGCGGACUAC [Mat - Exclusion 5 - JL mod - D83] (puzzle: Exclusion 5)', 'MS2 coat protein', 'true'),
  ('AUAAAAUAGGAGGAUAUCGUAUCGGAAACGAUACGAGAAGGUCUAACAUGAGGAUCACCCAUGUUCCUCAAUAA [Mat - Exclusion 6 - Eli Mod - D46] (puzzle: Exclusion 6)', 'MS2 coat protein', 'true'),
  ('GGAAAGGUAGGAUAUACGAAGAAAAAGGGUAGAAGAAGAACACAUGAGGAUCACCCAUGUAGAAGGACCAAAGC [Mat - Exclusion 2 - Mod of my Tesla design - D15] (puzzle: Exclusion 2)', 'MS2 coat protein', 'false'),
  ('GGUACUAACACGAGAGUGUUAGUACUAUAAGCUUGUGUUACAUGAGGAUCACCCAUGUCCUCAUAAGCUCGUCUUGA [Mat - Sensor v3 - Turn-off var 2 - D90] (puzzle: Sensor v3, turn-off variant 2)', 'MS2 coat protein', 'false'),
  ('ACAAGCUUUUUGUUCGUCUUAUACACUCCUAAUAAGACAACAUGAGGAUCACCCAUGUAACAAAGACGAACUCAUGU [Sesor Array 8 - Jieux - Sensor v3, turn-off variant 2] (puzzle: Sensor v3, turn-off variant 2)', 'MS2 coat protein', 'false'),
  ('CCCAGGGCAGGAUAUAGAGGGCGAAACAUGAGGAUCACCCAUGUGACCUCGGAACAGCUGCUAGAAGGGCCAAAUU [Beesquti] (puzzle: Exclusion 5)', 'MS2 coat protein', 'false'),
  ('AUAAACGCAGGAUAUACAUGAGGAUCACCCAUGUAAAUUUUAAAAUAAAUAAAUAGAUGUAGAAGGGCGAAAUA [Lollin - Gamma 1] (puzzle: Exclusion 3)', 'MS2 coat protein', 'false');

----------
system: MS2 coat protein; assay: apparent KD of MS2 coat protein; designed switch direction (-1 OFF switch, 1 ON switch): -1; higher = weaker reporter binding; conditions: input ligand: FMN 200 uM
readout.name: apparent KD of MS2 coat protein (nM)

INSERT INTO results (sequence_string, recorded_number) VALUES
  ('GUAGAGUGAGGAUAUACGAGAUCGAAAGAUCGGCGAUCCAAACAUGAGGAUCACCCAUGUAGAAGGCACUCUAC [Eli x2 4.006] (Eterna round: R97, puzzle: Exclusion 2)', 202),
  ('GCUGGUCGAGGAUAUACAUGAGGAUCACCCAUGUGAUCAGCAGUCCUCGGACUGCAAUGUAGAAGGUGACCAGC [E3/1-B1] (Eterna round: R97, puzzle: Exclusion 3)', 583),
  ('GAUGUCCAGCGAGGAUAUCUGGUAAAUAAAAUGAGAGAAGGCGCGAAGACAUGAGGAUCACCCAUGUUGUCGCAUGGGAGCCUG [Enqurete] (Eterna round: R96, puzzle: Exclusion NG 1)', 116);

----------
tested on: MS2 coat protein; assay: apparent KD of MS2 coat protein; higher = weaker reporter binding; settings: Eterna round: R107; input ligand: arginine 13.2 mM
readout.name: apparent KD of MS2 coat protein (nM)

INSERT INTO results (sequence_string, readout_name, recorded_number) VALUES
  ('UGUGCAUGAGUUGGAAAAGCUCAUGGGCAUCGAGGACCGGUACGGCCGCCACUCGGCUGUACAUGAGGAUCACCCAUGUCAGGGU [#1 Same State - Tryptophan A Attempt #23 (HarryS)]', 'apparent KD of MS2 coat protein', 82),
  ('UUUAAUUUAAUAGAUACCAGCUAAUAAUAAUCCCGGAGGACAUGAGGAUCACCCAUGUGGAGCCCUUGGCAGCUAAAAUAAAUUU [Exclusion - Theophylline B]', 'apparent KD of MS2 coat protein', 20.1),
  ('UAACAUGAGGAUCACCCAUGUUUAGAUGAACGAGGACCGGUACGGCCGCCACUCGAUAAGUGGAAAGAGCGAGGGAUUGUAUGCU [Same State Trp A GF4]', 'apparent KD of MS2 coat protein', 12.2),
  ('GGGUGUGAUCCGGAUACCAGUGAACAUGAGGAUCACCCAUGUGACCUGAGAUCGGCUCUUCACCCUUGGCAGCCGCGGUCGCAGG [Same State Theophylline B GF14]', 'apparent KD of MS2 coat protein', 11.4),
  ('AGAGAGGCGCAUGAUACCAGCUUGGCCUAACAUGAGGAUCACCCAUGUCAAUGGGCCUUAAGCCCUUGGCAGCAUAGGGUGUCCU [Xeestixexe]', 'apparent KD of MS2 coat protein', 72.7),
  ('AAAGAUCGGAAACGAUCGGCGGCUUGGGCGCGAGGACCGGUACGGCCGCCACUCGGGAAACAUGAGGAUCACCCAUGUUGCUUCU [ETA NP+V+V2 #16]', 'apparent KD of MS2 coat protein', 10),
  ('UUAAUCUAUAAUGAAAACAUUAUAGCAGAAGGAGCGUGAUAAAACACAGGUAGGUCGCUGAAGGGAACAUGAGGAUCACCCAUGU [AstrosSSArgA#12]', 'apparent KD of MS2 coat protein', 24.3),
  ('AAAUACAUGAGGAUCACCCAUGUCAAUAAUCGAGGACCGGUACGGCCGCCACUCGAUCGGCCAAGAAAAUGAAAGAUGAUCUCUA [theeternabot_sameState_MS2_Trp_A_8]', 'apparent KD of MS2 coat protein', 18.1),
  ('CCCGACGAGCCUGAGAUUAAGUAAGCGGAUACCAGAGAUAGGUAGCUCCCUUGGCAGCCGUGGACAUGAGGAUCACCCAUGUCAC [theeternabot_exclusion_MS2_Theo_A_22]', 'apparent KD of MS2 coat protein', 11.4),
  ('AACAUGAGGAUCACCCAUGUGUCCCUUGAUACCAGUCCCAUGUGAGACCCUUGGCAGCAAACAUGAGGAUCACCCAUGUCCCAUG [Same State Theophylline A 3]', 'apparent KD of MS2 coat protein', 60.9),
  ('UGUAUGGACUGAAGGAGCGGGUUGAUACCAUGAGGAUCACCCAUGGAAAAGGCGAAAGCCGCCCAGGUAGGUCGCAGUCCAUACU', 'apparent KD of MS2 coat protein', 14),
  ('GAGUAGAGGACGGCCGCCACUGAACAUGAGGAUCACCCAUGUCGUGAUCCGUUACCUAGGGUAGAUAGGACCGGGUCAUGUACUC [Exclusion Tryptophan B GF 18]', 'apparent KD of MS2 coat protein', 37.2);

This collection of values is drawn from the supplement of paper PMC9170038.
